Hey, just so you know, these numbers are from PubChem BioAssay AID1159580.

assay: chemical genetic growth profiling, strain panel (AID 1159580);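 note: tested at 20 µM; growth read once vehicle control cultures reached saturation at 30 °C; 1 = growth at the plate median or of vehicle wells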; conditions: S. cerevisiae deletion strains, growth OD, locus YER016W, strain bim1, stronger effect = lower value
The campaign covered roughly 5,500 compounds. About 2,000 (36%) were called active. Not shown: some 18% with an inconclusive outcome. This is one part of the list.
quantityName: normalized growth
One number for each entry.

Some compounds with recorded normalized growth:
> print(dat)
                                   compound  reportedmeasurement
1  C=CC(C1=CC(=O)C(OC)=CC1=O)c1ccc(OC)cc1 (configuration not stated)                0.912
2  C=C[C@@H](C1=CC(=O)C(OC)=C(OC)C1=O)c1ccccc1                0.999
3                  Nc1ccc(C(=O)NCC(=O)O)cc1                 1.02

Parameter requested: normalized growth. Apply to each item below.
1. Oc1c(Cl)cc(Cl)c2cccnc12
2. C=CC(C1=CC(=O)C(OC)=CC1=O)c1ccc(O)cc1 (configuration not stated)

1: 0.0695; 2: 1

Parameter requested: normalized growth. Apply to each item below.
1. C1CCN2C[C@@H]3C[C@H](CN4CCCC[C@@H]34)[C@H]2C1
2. Oc1ccc(Cl)c2cccnc12

[1, 0.0613]

====

experiment: chemical genetic growth profiling, strain panel (AID 1159580); conditions: S. cerevisiae deletion strains, growth OD, locus YLL026W, stronger effect = lower value
In all, about 5,500 compounds went through this assay and about 2,000 (36%) were called active. Inconclusive results (about 18%) are left out. The list shows a part of the results.
Kindly supply the reported normalized growth values for the records listed here.
Give bare numbers.

Some compounds with recorded normalized growth:
compound	quantityName	reportedMeasurement
C=C(NC(=O)C(=C)NC(=O)c1csc(C2=NC3c4csc(n4)C4NC(=O)c5csc(n5)C(C(C)(O)C(C)O)NC(=O)C5CSC(=N5)C(=CC)NC(=O)C(C(C)O)NC(=O)c5csc(n5)C3(CC2)NC(=O)C(C)NC(=O)C(=C)NC(=O)C(C)NC(=O)C(C(C)CC)NC2C=Cc3c(C(C)O)cc(nc3C2O)C(=O)OC4C)n1)C(N)=O (stereo not drawn)	normalized growth	0.995
C=C(CC)C(=O)c1ccc(OCC(=O)O)c(Cl)c1Cl	normalized growth	1.01
Nc1ccc(S(=O)(=O)Nc2ccc(Cl)nn2)cc1	normalized growth	0.998
C=CC(C1=CC(=O)C(OC)=CC1=O)c1ccc(OC)cc1 (stereo not drawn)	normalized growth	0.839

Parameter requested: normalized growth. Apply to each item below.
1. Cc1ccc(/C(=C\CN2CCCC2)c2ccccn2)cc1
2. Nc1ccc(C(=O)NCC(=O)O)cc1
3. O=C(NC(=O)c1c(F)cccc1F)Nc1ccc(Cl)cc1
4. COc1ccccc1OCCNCC(O)COc1cccc2[nH]c3ccccc3c12 (stereo not drawn)

1. 1.04
2. 0.997
3. 1.02
4. 1.02

Parameter requested: normalized growth. Apply to each item below.
1. C[C@H]1[C@H]2CCC3C4CC=C5C[C@@H](N(C)C)CC[C@]5(C)C4CC[C@@]32CN1C (stereo partly drawn)
2. CS(=O)(=O)CCCCN=C=S
3. CCOP(=S)(OCC)SCn1c(=O)oc2cc(Cl)ccc21

1: 0.987; 2: 0.65; 3: 0.954

Parameter requested: normalized growth. Apply to each item below.
1. O=C(O)C1=CCNCC1
2. O=[N+]([O-])c1ccc(O)c([N+](=O)[O-])c1
3. Cc1ccsc1/C=C/C1=NCCCN1C

[1.01, 0.816, 0.99]

Parameter requested: normalized growth. Apply to each item below.
1. Cc1c(O)c(O)cc2c1CC=C1[C@@]2(C)CC[C@@]2(C)C3C[C@](C)(C(=O)O)CC[C@]3(C)CC[C@]12C (stereo partly drawn)
2. Nc1ccc(S(=O)(=O)Nc2ccccn2)cc1
3. NC[C@H](O)c1ccc(O)c(O)c1
4. Nc1ccc([As](=O)(O)O)cc1
5. C=C(C)[C@H]1CC=C(C(=O)O)CC1
6. O=C(O)c1ccccc1Nc1ccccc1
7. C[n+]1cccc(C(=O)[O-])c1
8. Cc1c(Nc2ncccc2C(=O)O)cccc1C(F)(F)F

1: 0.496; 2: 1.02; 3: 1.02; 4: 1.01; 5: 0.97; 6: 0.934; 7: 0.989; 8: 0.978

Field request: normalized growth | item: CC(C)NCC(O)c1ccc(O)c(O)c1 (stereo not drawn)
0.997

====

assay: chemical genetic growth profiling, strain panel (AID 1159580);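 note: tested at 20 µM; growth read once vehicle control cultures reached saturation at 30 °C; 1 = growth at the plate median or of vehicle wells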; conditions: S. cerevisiae deletion strains, growth OD, locus YML124C, strain tub3
The whole screen tested about 5,500 compounds, of which about 2,000 (36%) were called active. Roughly 18% stayed inconclusive and do not appear here. Cut-off read from the data, not from the text of the source: active = normalized growth mostly below about 0.91 (no sharp cut-off); inconclusive = no clear call, values can overlap the other calls; inactive = mostly above about 0.92. Some of the results follow.
// classify into active, inactive

Use these answered entries as a reference point.
compound	cat
CCCC(C)C1(CC)C(=O)NC(=O)NC1=O (stereo not drawn)	inactive
CC(C)NCC(O)c1ccc(O)c(O)c1 (stereo not drawn)	inactive
O=C(O)/C=C/C=C/c1ccccc1	active

Now turn to the next compound.
Record lookup: outcome of this test for CC(C)=CCC[C@](C)(O)C1CC=C(C)CC1 (stereo partly drawn) ?
inactive

====

assay: chemical genetic growth profiling, strain panel (AID 1159580);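 note: tested at 20 µM; growth read once vehicle control cultures reached saturation at 30 °C; 1 = growth at the plate median or of vehicle wells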; details: S. cerevisiae deletion strains, growth OD, locus YBL105C, strain PKC1
In all, about 5,500 compounds went through this assay and about 2,000 (36%) were called active. Not shown: some 18% with an inconclusive outcome. No stated cut-off is given here; in the data, active means normalized growth mostly below about 0.91 (no sharp cut-off); inconclusive means no clear call, values can overlap the other calls; inactive means mostly above about 0.92. This is one part of the list.
// classify into 1 (yes) (active), 0 (no) (inactive)

Use these answered entries as a reference point.
> print(dat)
                                smilesinput      cat
1  O=C(NCCSCc1cccc(C(F)(F)F)c1)Nc1cccc(C(F)(F)F)c1   0 (no)
2  CCCc1c(C(=O)NC2Cc3ccccc3C2)cnn1-c1ccccc1   0 (no)
3          CSc1ccc(/C=C(\C)[N+](=O)[O-])cc1  1 (yes)

Record lookup: outcome of this test for FC(F)(F)c1cccc(NC(=S)Nc2csc(C(F)(F)F)c2-c2ccccc2)c1 ?
0 (no)

Record lookup: outcome of this test for Cc1c2c(=O)[nH]ncc2c(-c2ccccc2)n1-c1ccc([N+](=O)[O-])cc1 ?
0 (no)

Record lookup: outcome of this test for C/C(=C\c1ccc2c(c1)OCO2)[N+](=O)[O-] ?
1 (yes)

Record lookup: outcome of this test for N#CC(C#N)=C/C=C(/Sc1ccc(F)c(Cl)c1)c1ccc(Cl)cc1 ?
0 (no)

Record lookup: outcome of this test for Fc1cccc(F)c1NC(=S)Nc1cc(C(F)(F)F)cc(C(F)(F)F)c1 ?
0 (no)

Record lookup: outcome of this test for CCOc1ccc(/C=C(\C)[N+](=O)[O-])cc1OC ?
0 (no)

Record lookup: outcome of this test for N#CCC(=O)NNC(=S)Nc1ccc(Cl)c(Cl)c1 ?
0 (no)

Record lookup: outcome of this test for O=[N+]([O-])c1ccccc1CS(=O)(=O)c1nc2ccccc2s1 ?
1 (yes)

====

assay: chemical genetic growth profiling, strain panel (AID 1159580);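 note: tested at 20 µM; growth read once vehicle control cultures reached saturation at 30 °C; 1 = growth at the plate median or of vehicle wells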; settings: S. cerevisiae deletion strains, growth OD, locus YKL085W, strain MDH1, stronger effect = lower value
Hit rate of the full screen: of about 5,500 compounds, about 2,000 (36%) were called active. Inconclusive results (about 18%) are left out. The list shows a part of the results.
Kindly supply the reported normalized growth values for the records listed here.
Give bare numbers.

Some compounds with recorded normalized growth:
> print(dat)
                                   compound  reportedmeasurement
1  C=CC(C1=CC(=O)C(OC)=CC1=O)c1ccc(OC)cc1 (configuration not stated)                0.966
2       O=[N+]([O-])c1cc([As](=O)(O)O)ccc1O                0.484
3  O=[N+]([O-])c1cc(O)c(O)c([N+](=O)[O-])c1                 0.97
4                    CN[C@H](CC(=O)O)C(=O)O                 1.01
5  CC(=O)Nc1ccc(S(=O)(=O)Nc2ccc([N+](=O)[O-])cc2)cc1                 1.01
6     O=[N+]([O-])c1ccc(O)c([N+](=O)[O-])c1                0.192
7  C[C@H]1[C@H]2CCC3C4CC=C5C[C@@H](N(C)C)CC[C@]5(C)C4CC[C@@]32CN1C (some centres not stated)                0.997
8                       O=C(O)CCC(=O)C(=O)O                 1.01

Parameter requested: normalized growth. Apply to each item below.
1. CC(=O)Nc1cc([As](=O)(O)O)ccc1O
2. C=C[C@@H](C1=CC(=O)C(OC)=C(OC)C1=O)c1ccccc1
3. NC(=NCCC[C@H](N)C(=O)O)NC(CCC(=O)O)C(=O)O (some centres not stated)
4. O=C(O)CF

[0.982, 0.936, 1.01, 1]
